system: H1299 cells; assay: XTT cytotoxicity of peptides, peptide-CPT conjugates and CPT on H1299 cells; conditions: Homo sapiens, NCI-H1299
property: IC50 (µM)
The answer is to be given in µM; state only the numeric part.

Retrieve IC50 measured for CC[C@@]1(O)C(=O)OCc2c1cc1n(c2=O)Cc2cc3ccccc3nc2-1 [CPT, camptothecin] and print it.
6.7

---

tested on: DKMG cells; assay: XTT cytotoxicity of peptides, peptide-CPT conjugates and CPT on DKMG cells; assay type: cell-based; details: XTT, continuous exposure 24 h, non-linear regression, mean ± SD, triplicate
property: IC50 (µM)
The answer is to be given in µM; state only the numeric part.

Retrieve IC50 measured for `CC[C@@]1(O)C(=O)OCc2c1cc1n(c2=O)Cc2cc3ccccc3nc2-1` and print it.
25

Origin of the recorded values: paper PMC9318536
